Target: Delta-type opioid receptor (Rattus norvegicus, UniProt P33533)
Sequence (P33533 whole entry): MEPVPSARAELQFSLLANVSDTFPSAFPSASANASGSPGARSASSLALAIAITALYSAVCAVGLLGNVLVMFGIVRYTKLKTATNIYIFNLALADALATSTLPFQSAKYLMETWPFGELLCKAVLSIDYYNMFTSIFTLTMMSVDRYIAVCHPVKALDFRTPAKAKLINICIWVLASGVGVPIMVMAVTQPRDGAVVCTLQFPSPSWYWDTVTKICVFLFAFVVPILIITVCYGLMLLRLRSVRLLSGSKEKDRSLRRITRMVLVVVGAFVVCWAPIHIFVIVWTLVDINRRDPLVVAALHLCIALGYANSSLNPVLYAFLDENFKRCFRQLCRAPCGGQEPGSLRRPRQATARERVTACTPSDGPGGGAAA
Assay: Displacement of [3H]deltorphin2 from delta opioid receptor in rat brain membrane
Assay type: cell membranes
Residues, ends and D or L forms follow the SMILES beside them.
Please go through the items and note down their pIC50.
Entry type: numeric. Quantity: pIC50, the -log10 of concentration in molar units.

For this compound ( NC(=O)[C@H](Cc1ccc(O)cc1)NC(=O)[C@H](Cc1ccccc1)NC(=O)[C@@H]1CCCN1C(=O)[C@@H](N)Cc1ccc(O)cc1 (H-YPFY-NH2) ), measured pIC50 is 4.26

For this compound ( NC(=O)[C@H](CC1CCCCC1)NC(=O)[C@H](Cc1ccccc1)NC(=O)[C@@H]1CCCN1C(=O)[C@@H](N)Cc1ccc(O)cc1 (HELM PEPTIDE1{Y.P.F.[Cha].[am]}$$$$V2.0) ), measured pIC50 is 4.94

For this compound ( NC(=O)[C@H](Cc1ccccc1)NC(=O)[C@H](Cc1ccc(O)cc1)NC(=O)[C@@H]1CCCN1C(=O)[C@@H](N)Cc1ccc(O)cc1 (H-YPYF-NH2) ), measured pIC50 is 5.24

For this compound ( NC(=O)[C@H](Cc1ccccc1)NC(=O)[C@H](Cc1c(F)c(F)c(F)c(F)c1F)NC(=O)[C@@H]1CCCN1C(=O)[C@@H](N)Cc1ccc(O)cc1 ), measured pIC50 is 4.93

====

Biological target: Mu-type opioid receptor (Rattus norvegicus, UniProt P33535)
Sequence (P33535 whole entry): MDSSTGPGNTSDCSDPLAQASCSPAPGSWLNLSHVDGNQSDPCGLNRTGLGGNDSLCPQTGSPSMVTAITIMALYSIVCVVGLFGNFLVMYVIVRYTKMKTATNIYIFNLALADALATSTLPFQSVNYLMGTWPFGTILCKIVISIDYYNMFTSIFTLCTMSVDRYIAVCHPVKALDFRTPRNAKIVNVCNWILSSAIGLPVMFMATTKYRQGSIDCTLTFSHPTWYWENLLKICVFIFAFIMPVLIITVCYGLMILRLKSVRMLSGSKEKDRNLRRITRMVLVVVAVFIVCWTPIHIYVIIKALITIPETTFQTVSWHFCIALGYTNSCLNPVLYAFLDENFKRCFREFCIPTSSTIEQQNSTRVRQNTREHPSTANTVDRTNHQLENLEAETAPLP
Assay: Displacement of [3H]DAGO from mu opioid receptor in rat brain membrane
Residues, ends and D or L forms follow the SMILES beside them.
reported.property: IC50 (µM)
The answer is to be given in µM; state only the numeric part.

For this compound ( CC(C)[C@H](NC(=O)[C@@H]1CCCN1C(=O)[C@@H](N)Cc1ccc(O)cc1)C(=O)N[C@@H](Cc1ccccc1)C(N)=O (H-YPVF-NH2) ), measured IC50 is 2.65

For this compound ( NC(=O)[C@H](Cc1ccccc1)NC(=O)[C@H](Cc1c[nH]cn1)NC(=O)[C@@H]1CCCN1C(=O)[C@@H](N)Cc1ccc(O)cc1 (H-YPHF-NH2) ), measured IC50 is 4.49

For this compound ( NC(=O)[C@H](Cc1ccccc1)NC(=O)[C@H](CC1CCCCC1)NC(=O)[C@@H]1CCCN1C(=O)[C@@H](N)Cc1ccc(O)cc1 (HELM PEPTIDE1{Y.P.[Cha].F.[am]}$$$$V2.0) ), measured IC50 is 0.148

====

Biological target: Mu-type opioid receptor (Rattus norvegicus)
Assay: Displacement of [3H]DAGO from mu opioid receptor in rat brain membrane
Residues, ends and D or L forms follow the SMILES beside them.
reported.property: pIC50
Entry type: numeric. Quantity: pIC50, the -log10 of concentration in molar units.

Lab note: compound NC(=O)[C@H](Cc1ccccc1)NC(=O)[C@H](Cc1c(F)c(F)c(F)c(F)c1F)NC(=O)[C@@H]1CCCN1C(=O)[C@@H](N)Cc1ccc(O)cc1 tested on Mu-type opioid receptor (Rattus norvegicus); recorded pIC50 was 7.93

Lab note: compound NC(=O)[C@H](Cc1ccccc1)NC(=O)[C@H](Cc1ccc(O)cc1)NC(=O)[C@@H]1CCCN1C(=O)[C@@H](N)Cc1ccc(O)cc1 (H-YPYF-NH2) tested on Mu-type opioid receptor (Rattus norvegicus); recorded pIC50 was 5.96

Lab note: compound CCCC[C@H](NC(=O)[C@@H]1CCCN1C(=O)[C@@H](N)Cc1ccc(O)cc1)C(=O)N[C@@H](Cc1ccccc1)C(N)=O (HELM PEPTIDE1{Y.P.[Nle].F.[am]}$$$$V2.0) tested on Mu-type opioid receptor (Rattus norvegicus); recorded pIC50 was 6.64

Lab note: compound NC(=O)[C@H](Cc1ccc(O)cc1)NC(=O)[C@H](Cc1ccccc1)NC(=O)[C@@H]1CCCN1C(=O)[C@@H](N)Cc1ccc(O)cc1 (H-YPFY-NH2) tested on Mu-type opioid receptor (Rattus norvegicus); recorded pIC50 was 7.21

Lab note: compound CC(C)[C@H](NC(=O)[C@H](Cc1ccccc1)NC(=O)[C@@H]1CCCN1C(=O)[C@@H](N)Cc1ccc(O)cc1)C(N)=O (H-YPFV-NH2) tested on Mu-type opioid receptor (Rattus norvegicus); recorded pIC50 was 7.12

Lab note: compound CCCC[C@H](NC(=O)[C@H](Cc1ccccc1)NC(=O)[C@@H]1CCCN1C(=O)[C@@H](N)Cc1ccc(O)cc1)C(N)=O (HELM PEPTIDE1{Y.P.F.[Nle].[am]}$$$$V2.0) tested on Mu-type opioid receptor (Rattus norvegicus); recorded pIC50 was 7.47

Lab note: compound C[C@H](NC(=O)[C@H](Cc1ccccc1)NC(=O)[C@@H]1CCCN1C(=O)[C@@H](N)Cc1ccc(O)cc1)C(N)=O (H-YPFA-NH2) tested on Mu-type opioid receptor (Rattus norvegicus); recorded pIC50 was 7.07

Lab note: compound NC(=O)[C@H](CC1CCCCC1)NC(=O)[C@H](Cc1ccccc1)NC(=O)[C@@H]1CCCN1C(=O)[C@@H](N)Cc1ccc(O)cc1 (HELM PEPTIDE1{Y.P.F.[Cha].[am]}$$$$V2.0) tested on Mu-type opioid receptor (Rattus norvegicus); recorded pIC50 was 6.04

Lab note: compound CC(C)C[C@H](NC(=O)[C@@H]1CCCN1C(=O)[C@@H](N)Cc1ccc(O)cc1)C(=O)N[C@@H](Cc1ccccc1)C(N)=O (H-YPLF-NH2) tested on Mu-type opioid receptor (Rattus norvegicus); recorded pIC50 was 6.03

Lab note: compound NC(=O)[C@H](Cc1c[nH]c2ccccc12)NC(=O)[C@H](Cc1ccccc1)NC(=O)[C@@H]1CCCN1C(=O)[C@@H](N)Cc1ccc(O)cc1 (H-YPFW-NH2) tested on Mu-type opioid receptor (Rattus norvegicus); recorded pIC50 was 7.06

Lab note: compound NC(=O)[C@H](Cc1c(F)c(F)c(F)c(F)c1F)NC(=O)[C@H](Cc1ccccc1)NC(=O)[C@@H]1CCCN1C(=O)[C@@H](N)Cc1ccc(O)cc1 tested on Mu-type opioid receptor (Rattus norvegicus); recorded pIC50 was 8.56

Lab note: compound NC(=O)[C@H](Cc1c[nH]cn1)NC(=O)[C@H](Cc1ccccc1)NC(=O)[C@@H]1CCCN1C(=O)[C@@H](N)Cc1ccc(O)cc1 (H-YPFH-NH2) tested on Mu-type opioid receptor (Rattus norvegicus); recorded pIC50 was 6.86

====

Target: Delta-type opioid receptor (Rattus norvegicus, UniProt P33533)
Assay: Displacement of [3H]deltorphin2 from delta opioid receptor in rat brain membrane
pIC50: −log10 of the molar value. Residues, ends and D or L forms follow the SMILES beside them.
reported.property: pIC50

For this compound ( NC(=O)[C@H](Cc1ccccc1)NC(=O)[C@H](Cc1c[nH]cn1)NC(=O)[C@@H]1CCCN1C(=O)[C@@H](N)Cc1ccc(O)cc1 (H-YPHF-NH2) ), measured pIC50 is < 3.00

For this compound ( NC(=O)[C@H](Cc1c[nH]cn1)NC(=O)[C@H](Cc1ccccc1)NC(=O)[C@@H]1CCCN1C(=O)[C@@H](N)Cc1ccc(O)cc1 (H-YPFH-NH2) ), measured pIC50 is < 3.00

For this compound ( CCCC[C@H](NC(=O)[C@@H]1CCCN1C(=O)[C@@H](N)Cc1ccc(O)cc1)C(=O)N[C@@H](Cc1ccccc1)C(N)=O (HELM PEPTIDE1{Y.P.[Nle].F.[am]}$$$$V2.0) ), measured pIC50 is 4.82

For this compound ( NC(=O)[C@H](Cc1c[nH]c2ccccc12)NC(=O)[C@H](Cc1ccccc1)NC(=O)[C@@H]1CCCN1C(=O)[C@@H](N)Cc1ccc(O)cc1 (H-YPFW-NH2) ), measured pIC50 is < 3.00

For this compound ( C[C@@H](NC(=O)[C@@H](N)Cc1ccc(O)cc1)C(=O)NCC(=O)N(C)[C@@H](Cc1ccccc1)C(=O)NCCO ), measured pIC50 is 6.14

For this compound ( CC(C)[C@H](NC(=O)[C@H](Cc1ccccc1)NC(=O)[C@@H]1CCCN1C(=O)[C@@H](N)Cc1ccc(O)cc1)C(N)=O (H-YPFV-NH2) ), measured pIC50 is < 3.00

====

Target: Delta-type opioid receptor (Rattus norvegicus, UniProt P33533)
Assay: Displacement of [3H]deltorphin2 from delta opioid receptor in rat brain membrane
Residues, ends and D or L forms follow the SMILES beside them.
Please go through the items and note down their pIC50.
Entry type: numeric. Quantity: pIC50, the -log10 of concentration in molar units.

For this compound ( NC(=O)[C@H](Cc1c(F)c(F)c(F)c(F)c1F)NC(=O)[C@H](Cc1ccccc1)NC(=O)[C@@H]1CCCN1C(=O)[C@@H](N)Cc1ccc(O)cc1 ), measured pIC50 is 5.09

For this compound ( NC(=O)[C@H](Cc1ccccc1)NC(=O)[C@H](CC1CCCCC1)NC(=O)[C@@H]1CCCN1C(=O)[C@@H](N)Cc1ccc(O)cc1 (HELM PEPTIDE1{Y.P.[Cha].F.[am]}$$$$V2.0) ), measured pIC50 is 5.50
